Test system: M19-MEL melanoma
EXPERIMENT DESCRIPTION: NCI tumour cell line growth inhibition, 48 h
QUANTITY MEASURED: TGI

Here is how some molecules turned out for TGI.
- MOLECULE: "O=C1c2ccccc2C(=O)C1(Cl)C1(S(=O)(=O)O)c2ccccc2-c2ccccc21"
  TGI: "> 100 µM"
- MOLECULE: "O=C(c1ccc(O)cc1)C1c2c3c(cc(O)c2C(c2ccc(O)cc2)C1c1cc(O)cc(O)c1)OC(c1ccc(O)cc1)C3c1cc2c(cc1O)OC(c1ccc(O)cc1)C2c1cc(O)cc(O)c1 (stereo not given)"
  TGI: "> 12.5 µM"
- MOLECULE: "O=C(Nc1nc2ncn(CCI)c2c(=O)[nH]1)c1ccccc1"
  TGI: "> 100 µM"
- MOLECULE: "CC1=CC(/C=C(\\C)CCCc2ccoc2)C2(OC(=O)C(C)=C2O)[C@H]2C1CC[C@@H]2C (stereo not given in full)"
  TGI: "90.6 µM"
- MOLECULE: "COC(=O)c1cc2c3ccccc3n(C(C)=O)c2cn1"
  TGI: "> 100 µM"
- MOLECULE: "COC(=O)C1=C(c2ccc3c(c2)OCO3)O[C@H](c2cc(OC)c(OC)c(OC)c2)[C@H]1COC(C)=O"
  TGI: "27.9 µM"
- MOLECULE: "COc1ccccc1C1C(C(=O)O)=C(CO)Oc2cc3c(cc21)OCO3 (stereo not given)"
  TGI: "> 100 µM"
- MOLECULE: "Cc1ccc(SC(C)/C=C/NNC2=NC(c3ccccc3)C(c3ccccc3)=NN2)cc1 (stereo not given)"
  TGI: "> 100 µM"
- MOLECULE: "O=[n+]1c2c(n([O-])c3ccccc31)CCCCCCCCCC2"
  TGI: "> 100 µM"
- MOLECULE: "CC(O)C(N=Cc1ccccc1[O-])C(=O)[O-].CC(O)C(N=Cc1ccccc1[O-])C(=O)[O-].[Co+2] (stereo not given)"
  TGI: "> 100 µM"

Q: For M19-MEL melanoma, provide TGI of COC(=O)C12C3C4C1C1C2C3C41C(=O)OC(C)(C)C (stereo not given) please.
A: > 100 µM

Q: For M19-MEL melanoma, provide TGI of CCOC(=O)Oc1c(OC)cc(C(=O)NC2CCc3cc(OC)c(OC)c(OC)c3-c3ccc(SC)c(=O)cc32)cc1OC (stereo not given) please.
A: > 70 µM

Q: For M19-MEL melanoma, provide TGI of Cc1ccc(NC(=O)c2c(C)nc(=O)n3c2N(/N=C/c2ccc(Cl)cc2)CC3)cc1 please.
A: 37 µM

Q: For M19-MEL melanoma, provide TGI of CCCCN(CCCC)CC(C(=O)Nc1ccc([N+](=O)[O-])cc1[N+](=O)[O-])/C(C)=N\NC(=S)NN (stereo not given) please.
A: > 100 µM

Q: For M19-MEL melanoma, provide TGI of O=c1n(CC2CO2)c(=O)n(CC2CO2)c(=O)n1CC1CO1 (stereo not given) please.
A: 113 µM
